- Tested on: human T-lymphocyte CEM cells
- test-method-notes: Cytostatic activity: inhibition of proliferation of human T-lymphocyte CEM cells
- Format: cell-based
- protocol-conditions: CCRF-CEM; human T-lymphocyte CEM cells, 72 h proliferation, Coulter counter; read-out: IC50 (CEM)
Reported IC50 values for the following molecules.
endpoint-label: IC50

1) O=c1[nH]cc(F)c(=O)[nH]1 [5-fluorouracil, reference compound] : 18 µM
2) Nc1nc(Cl)c2ncn(Cc3cn(C[C@H](OCc4ccccc4)[C@H](O)P(=O)(OCc4ccccc4)OCc4ccccc4)nn3)c2n1 [(1R,2S)-17k] : 26 µM
3) Nc1nc(Cl)c2ncn(Cc3cn(C[C@H](OCc4ccccc4)[C@@H](O)P(=O)(OCc4ccccc4)OCc4ccccc4)nn3)c2n1 [(1S,2S)-17k] : 30 µM

----------
- System: human cervix carcinoma HeLa cells
- test-method-notes: Cytostatic activity: inhibition of proliferation of human cervix carcinoma HeLa cells
- Format: cell-based
- protocol-conditions: human cervix carcinoma HeLa cells, 72 h proliferation, Coulter counter; read-out: IC50 (HeLa)
pIC50: −log10 of the molar value.
Reported pIC50 values for the following compounds.
endpoint-label: pIC50

1) Nc1nc(Cl)c2ncn(Cc3cn(C[C@H](OCc4ccccc4)[C@H](O)P(=O)(OCc4ccccc4)OCc4ccccc4)nn3)c2n1 [(1R,2S)-17k] : 4.05
2) Nc1nc(Cl)c2ncn(Cc3cn(C[C@H](OCc4ccccc4)[C@@H](O)P(=O)(OCc4ccccc4)OCc4ccccc4)nn3)c2n1 [(1S,2S)-17k] : 4.08
3) O=c1[nH]cc(F)c(=O)[nH]1 [5-fluorouracil, reference compound] : 6.27

----------
- Test system: human cervix carcinoma HeLa cells
- test-method-notes: Cytostatic activity: inhibition of proliferation of human cervix carcinoma HeLa cells
- Type: cell-based
- protocol-conditions: Homo sapiens, HeLa, 72 h, read-out: IC50 (HeLa)
pIC50: −log10 of the molar value.
endpoint-label: pIC50

1. CCOP(=O)(CCCCn1cc(Cn2cnc3c(=O)[nH]c(N)nc32)nn1)OCC [Compound 16d] : 3.83
2. CCOP(=O)(CCn1cc(Cn2cnc3c(Cl)nc(N)nc32)nn1)OCC [Compound 17b] : 3.64
3. CCOP(=O)(CCOCCn1cc(Cn2cnc3c(=O)[nH]c(N)nc32)nn1)OCC [Compound 16i] : 3.68
4. CCOP(=O)(OCC)C(O)CCn1cc(Cn2cnc3c(=O)[nH]c(N)nc32)nn1 (stereo not shown) [Compound 16g] : 3.73
5. CCOP(=O)(CNC(=O)Cn1cc(Cn2cnc3c(=O)[nH]c(N)nc32)nn1)OCC [Compound 16j] : 3.67
6. CCOP(=O)(OCC)C(O)Cn1cc(Cn2cnc3c(=O)[nH]c(N)nc32)nn1 (stereo not shown) [Compound 16e] : 3.69
7. CCOP(=O)(CC(O)Cn1cc(Cn2cnc3c(=O)[nH]c(N)nc32)nn1)OCC (stereo not shown) [Compound 16f] : 3.71
8. CCOP(=O)(CCCn1cc(Cn2cnc3c(=O)[nH]c(N)nc32)nn1)OCC [Compound 16c] : 3.86

----------
Reported IC50 values for the following compounds.
- Tested on: murine leukemia L1210 cells
- test-method-notes: Cytostatic activity: inhibition of proliferation of murine leukemia L1210 cells
- Format: cell-based
- protocol-conditions: range over both L1210 and CEM cells and both 17k isomers; read-out: IC50 against proliferation of L1210 and CEM cell lines (range given)
endpoint-label: IC50

1. Nc1nc(Cl)c2ncn(Cc3cn(C[C@H](OCc4ccccc4)[C@@H](O)P(=O)(OCc4ccccc4)OCc4ccccc4)nn3)c2n1 [(1S,2S)-17k] : 16 to 30 µM
2. Nc1nc(Cl)c2ncn(Cc3cn(C[C@H](OCc4ccccc4)[C@H](O)P(=O)(OCc4ccccc4)OCc4ccccc4)nn3)c2n1 [(1R,2S)-17k] : 16 to 30 µM

Cited source: paper PMC6332235
